System: Pro-neuregulin-1, membrane-bound isoform (Homo sapiens) (UniProt Q02297)
Sequence (Q02297 whole entry, looked up, canonical isoform): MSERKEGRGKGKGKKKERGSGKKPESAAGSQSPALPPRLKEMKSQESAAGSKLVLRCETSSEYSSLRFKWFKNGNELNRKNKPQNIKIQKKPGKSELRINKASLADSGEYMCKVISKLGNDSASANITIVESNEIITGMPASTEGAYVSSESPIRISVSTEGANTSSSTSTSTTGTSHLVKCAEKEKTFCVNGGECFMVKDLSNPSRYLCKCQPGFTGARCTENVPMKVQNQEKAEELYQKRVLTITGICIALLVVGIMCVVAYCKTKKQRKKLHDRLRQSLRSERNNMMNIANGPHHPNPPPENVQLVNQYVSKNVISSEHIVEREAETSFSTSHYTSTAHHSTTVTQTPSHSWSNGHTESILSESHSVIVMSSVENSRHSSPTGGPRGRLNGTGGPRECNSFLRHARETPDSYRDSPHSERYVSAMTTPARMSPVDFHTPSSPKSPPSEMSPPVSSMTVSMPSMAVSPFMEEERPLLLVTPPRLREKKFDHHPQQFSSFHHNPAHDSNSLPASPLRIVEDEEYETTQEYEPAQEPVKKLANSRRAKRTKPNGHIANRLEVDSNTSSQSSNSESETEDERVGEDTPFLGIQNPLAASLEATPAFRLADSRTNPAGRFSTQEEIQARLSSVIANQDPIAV
Assay Protocol: NRG1 binders on small-molecule microarrays, primary screen, psychiatric disease protein project, biochemical, small-molecule microarray, fluorescence 635/667 (AID 1075);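 note: score combines 667 nm spot fluorescence with signal to noise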
Stated Conditions: NRG1 binding, 635 nm fluorescence, higher = more signal
Measured composite z-score by item
# answer = number (no unit)

Recall and state the measured composite z-score for CCOC(=O)[C@H]1[C@@H]2C(=O)N3CCC[C@H]3[C@H](O[Si](C(C)C)(C(C)C)C(C)C)[C@H]2C=C2CCN(S(=O)(=O)c3ccc(C)cc3)C[C@H]21 .
0.319

Recall and state the measured composite z-score for COCCCNC(=O)[C@]1(CCS(=O)(=O)c2ccccc2)N=C(c2ccc(OCCCO)cc2)O[C@@H]1c1ccccc1CN=[N+]=[N-] .
1.79

Recall and state the measured composite z-score for COC(=O)[C@@]1(Cc2ccc(OC)cc2)[C@H]2c3cc(C(=O)N(C)C)n(C[C@H](O)CO)c3C[C@H]2CN1C(=O)c1ccccc1 .
1.25
